molecular target: T1, soluble monomeric FcγRIIIA (extracellular region joined to linker-AVITAG), allele not stated (human, UniProt P08637 17-208); assay: ELISA
T1 construct: extracellular domain; also called FcRIIIA; CD16A; not shown: linker-AVITAG
T1 sequence (P08637 17-208): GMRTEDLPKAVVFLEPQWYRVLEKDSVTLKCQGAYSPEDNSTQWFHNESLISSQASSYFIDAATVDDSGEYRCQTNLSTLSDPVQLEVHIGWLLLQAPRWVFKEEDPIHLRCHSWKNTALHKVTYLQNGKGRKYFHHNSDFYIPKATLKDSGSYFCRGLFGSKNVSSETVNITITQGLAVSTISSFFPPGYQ
measured_metric: Binding to FcγRIIIA (ELISA) (fold increase)
Number in fold increase, nothing else.

Lookup: Which Binding to FcγRIIIA (ELISA) reading was recorded for the binder IgG1 Fc mutant K222N, T335N, K370E, A378V, T394M (antibody) heavy: ASTKGPSVFPLAPSSKSTSGGTAALGCLVKDYFPEPVTVSWNSGALTSGVHTFPAVLQSSGLYSLSSVVTVPSSSLGTQTYICNVNHKPSNTKVDKKVEPKSCDNTHTCPPCPAPELLGGPSVFLFPPKPKDTLMISRTPEVTCVVVDVSHEDPEVKFNWYVDGVEVHNAKTKPREEQYNSTYRVVSVLTVLHQDWLNGKEYKCKVSNKALPAPIEKNISKAKGQPREPQVYTLPPSRDELTKNQVSLTCLVEGFYPSDIVVEWESNGQPENNYKTMPPVLDSDGSFFLYSKLTVDKSRWQQGNVFSCSVMHEALHNHYTQKSLSLSPGK ?
Found: 1

Lookup: Which Binding to FcγRIIIA (ELISA) reading was recorded for the binder IgG1 Fc mutant A231V, Q386H, V412M (antibody) heavy: ASTKGPSVFPLAPSSKSTSGGTAALGCLVKDYFPEPVTVSWNSGALTSGVHTFPAVLQSSGLYSLSSVVTVPSSSLGTQTYICNVNHKPSNTKVDKKVEPKSCDKTHTCPPCPVPELLGGPSVFLFPPKPKDTLMISRTPEVTCVVVDVSHEDPEVKFNWYVDGVEVHNAKTKPREEQYNSTYRVVSVLTVLHQDWLNGKEYKCKVSNKALPAPIEKTISKAKGQPREPQVYTLPPSRDELTKNQVSLTCLVKGFYPSDIAVEWESNGHPENNYKTTPPVLDSDGSFFLYSKLTMDKSRWQQGNVFSCSVMHEALHNHYTQKSLSLSPGK ?
Found: 1.5

The values you see were collected from patent US20090098124A1.
